Molecular target: T1, cynomolgus monkey CXCR4 (cynomolgus monkey, UniProt Q28474 1-352)
T1 construct: whole, on cells; On transiently transfected HEK293T cells or endogenous on the cynomolgus T-cell line HSC-F; also called Cynomolgus CXCR4
T1 sequence (Q28474 whole entry): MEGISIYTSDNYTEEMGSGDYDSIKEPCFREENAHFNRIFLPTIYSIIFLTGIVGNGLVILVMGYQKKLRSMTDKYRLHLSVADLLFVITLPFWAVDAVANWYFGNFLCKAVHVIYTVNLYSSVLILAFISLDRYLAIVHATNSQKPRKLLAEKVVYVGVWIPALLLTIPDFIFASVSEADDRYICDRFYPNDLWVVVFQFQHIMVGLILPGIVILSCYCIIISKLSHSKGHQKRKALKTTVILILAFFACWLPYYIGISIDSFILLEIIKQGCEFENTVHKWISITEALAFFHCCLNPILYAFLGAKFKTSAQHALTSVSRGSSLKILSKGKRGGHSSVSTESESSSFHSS
Experiment: FMAT, hybridoma supernatant on HEK293T cells transiently overexpressing full-length cynomolgus CXCR4
Measured FL1 x count of individual entries
// keep it numeric: no unit symbol after the value

Some solved cases for reference:
binder | FL1 x count
5C9 (antibody, V domains shown, Fully human monoclonal antibody from XenoMouse hybridoma (lambda light chain)) VH: QVQLVESGGGVVQPGRSLRLSCAASGFTFSSYGLHWVRQSPGKGLEWVAVISYDGSKKYYADSVKGRFSISRDNSKNTLYLQMNSLRAEDTAVYYCARDRPSRYSSCMDVWGQGTTVTVSS VL: QSALTQPASVSGSPGQSITISCTGTSSDVGSNNFVSWYQQHPGKAPKLMIYEVSKRPSGVSNRFSGSKSGNTASLTISGLQAEDEADYYCCSYAGSNTLVFGGGTKLTVL | 776000
7C8 (antibody, V domains shown, Fully human monoclonal antibody from XenoMouse hybridoma) VH: QVQLVESGGGVVQPGRSLRLSCAASGFTFSSYGMHWVRQAPGKGLEWVAVIWYDGTYKYYADSVRGRFTISRDNSKNTLYLQMNSLRAEDTAVYYCARGPLLRYFDWLSDYWGQGTLVTVSS VL: DIQMTQSPSSLSASVGDRVTITCRASQGIRNDLGWYQQKPGKAPKRLIYAATSLQSGVPSRFSGSGSGTEFTLTISSLQPEDFATYYCLQHNNYPRTFGGGTKVEIK | 642000

// switching to the query binder
Request: Query (binder): 6C7 (antibody, V domains shown, Fully human monoclonal antibody from XenoMouse hybridoma; also called antibody 6C7; mAb 6C7) VH: QVQLVESGGGVVQPGRSLRLSCAASGFTFSNYVMHWVRQAPGKGLEWVAVIWYDGSNKYYADSVKGRFTISRDNSKNTLSLQMNSLRAEDTAVYYCERGEGYYGSGSRYRGYYYGMDVWGQGTTVTVSS VL: DIQMTQSPSSLSASVGDRVTITCRASQGIRTDLGWYQQKPGKAPKRLIYAASSLQSGVPSRFSGSGSGTEFTLTISSLQPEDFATYYCLQHNSYPRTFGQGTKVEIK ; field requested: FL1 x count
Result: 434000
